Test system: HUE cells
Assay: Viability assay (MIT assay), HUE cells
Format: cell-based, human
Conditions: Homo sapiens, 48 h, sub (low density, subconfluent), 48 h incubation
Square brackets hold non-standard residues; d marks the D form. Peptide text beside a SMILES is read from it. * marks the point of attachment. Nva = CCC[C@H](N)C(=O)O; Cbz = O=C(OCc1ccccc1)*; OtBu = CC(C)(C)O*
measured.parameter: EC50 (nM)
Answer with a number only, understood to be in nM.

GET /value?item= CCC[C@@H](C=O)NC(=O)[C@H](CC(C)C)NC(=O)[C@H](CC(C)C)NC(=O)OCc1ccccc1 [LLnV] (Cbz-Leu-Leu-[Nva]-aldehyde) &field=EC50 returns 310

Moving on to the next molecule.
GET /value?item= CC[C@H](C)[C@H](NC(=O)OCc1ccccc1)C(=O)N[C@@H](CCC(=O)OC(C)(C)C)C(=O)N[C@@H](C)C(=O)N[C@H](C=O)CC(C)C [PSI] (Cbz-IE(OtBu)AL-aldehyde) &field=EC50 returns 7
